assay: BSK_CASM3C_SRB: Viability Assessment in the BioMAP Diversity Plus: CASM3C Assay (AID 2283050); conditions: primary human coronary artery smooth muscle cells;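 note: total protein by SRB staining as cytotoxicity measure in parallel cultures; cells exposed to compound for 24 h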
Active and inactive are the calls of the source. Rule for the calls: active = hit-call score of the fitted dose curve at least 0.9, where 1 is the maximum; inactive = score below 0.9.
MEASUREMENT_KIND: AC50

# COMPOUND_STRUCTURE_STRING, MEASUREMENT_KIND, ENDPOINT_VALUE
rows = [
    ("CCC(C)(C)c1ccc(O)c(C(C)(C)CC)c1", "AC50", "13 µM (active)"),
    ("CC(C)(C)CC(C)(C)c1ccc(O)cc1", "AC50", "13.7 µM (active)"),
    ("Oc1c(I)cc(I)cc1I", "AC50", "inactive"),
    ("CCNc1nc(NC(C)(C)C)nc(SC)n1", "AC50", "inactive"),
    ("Cc1ccccc1N", "AC50", "inactive"),
    ("C=CC(=O)OCCCCCC(C)C", "AC50", "inactive"),
    ("COc1cc(-c2ccc(N)c(OC)c2)ccc1N", "AC50", "inactive"),
    ("O=C(OC1CCCCC1)c1ccccc1C(=O)OC1CCCCC1", "AC50", "20.9 µM (active)"),
    ("CC(C)(c1ccccc1)c1ccc(O)c(C(C)(C)c2ccccc2)c1", "AC50", "26.8 µM (active)"),
    ("CCOC(=O)/C=C(C)/C=C/C[C@@H](C)CCCC(C)C", "AC50", "31 µM (active)"),
    ("CCOP(=S)(OCC)SCSP(=S)(OCC)OCC", "AC50", "inactive"),
    ("O=[N+]([O-])c1ccc2c3c(cccc13)CC2", "AC50", "inactive"),
    ("C=C(C)C(=O)[O][Sn]([CH2]CCC)([CH2]CCC)[CH2]CCC", "AC50", "0.148 µM (active)"),
]

----------
read-out: TIMP metallopeptidase inhibitor 2 (TIMP2), TIMP2 (gene 7077); assay: BSK_KF3CT_TIMP2: BioMAP Diversity Plus: KF3CT Assay for TIMP metallopeptidase inhibitor 2 (TIMP2) Biomarker Activity (AID 2283071); conditions: primary human keratinocytes with fibroblasts; actives raise or lower the signal
Activity calls are given as the source filed them. How the source made its calls: active means hit-call score of the fitted dose curve at least 0.9, where 1 is the maximum; inactive means score below 0.9.
Possible outcomes: 1 for active, 0 for inactive

# COMPOUND_STRUCTURE_STRING, ASSIGNED_LABEL
records = [
    ("CCCCCCCCC(=O)NCc1ccc(O)c(OC)c1", 0),
    ("CC(C)(C)c1cc(O)ccc1O", 1),
    ("NC(=S)Nc1ccccc1", 0),
    ("COC[C@H](C)N(C(=O)CCl)c1c(C)csc1C", 0),
    ("Cc1ccccc1N", 0),
    ("CCCCCCCCc1ccc(O)cc1", 1),
    ("Nc1ncc([N+](=O)[O-])s1", 0),
    ("COP(=S)(OC)Oc1ccc(S(=O)(=O)N(C)C)cc1", 0),
    ("C=C(C)C(=O)[O][Sn]([CH2]CCC)([CH2]CCC)[CH2]CCC", 1),
]

----------
read-out: Monocyte Chemoattractant Protein-1 (MCP1), CCL2 (gene 6347); assay: BSK_3C_MCP1: BioMAP Diversity Plus: 3C Assay for Monocyte Chemoattractant Protein-1 (MCP1) Biomarker Activity (AID 2283017); conditions: primary human endothelial cells (HUVEC); actives raise or lower the signal
The source made the active and inactive calls. How the source made its calls: active means hit-call score of the fitted dose curve at least 0.9, where 1 is the maximum; inactive means score below 0.9.
Possible outcomes: y for active, n for inactive

# MOLECULE, ASSIGNED_LABEL
measured = [
    ("ClC1=C(Cl)[C@]2(Cl)[C@H]3[C@H]([C@H]4C=C[C@H]3C4)[C@@]1(Cl)C2(Cl)Cl", "y"),
    ("O=C(O)CCC(F)(C(F)(F)F)C(F)(F)F", "n"),
    ("CC(C)CCCCCCOC(=O)c1ccccc1C(=O)OCCCCCCC(C)C", "n"),
    ("Nc1ccc(-c2ccc(N)c(Cl)c2)cc1Cl", "n"),
    ("Oc1ccc(-c2ccccc2)cc1", "n"),
    ("CCCCCCCCC(=O)NCc1ccc(O)c(OC)c1", "n"),
    ("C=C(C)C(=O)[O][Sn]([CH2]CCC)([CH2]CCC)[CH2]CCC", "y"),
    ("CCOC(=O)/C=C(C)/C=C/C[C@@H](C)CCCC(C)C", "y"),
    ("CCC(=O)C(CC(C)N(C)C)(c1ccccc1)c1ccccc1 (stereo not given)", "n"),
    ("CC12CC1(C)C(=O)N(c1cc(Cl)cc(Cl)c1)C2=O (stereo not given)", "n"),
]
